- procedureSummary: Selectivity index, ratio of IC50 for human HepG2 cells to MIC>99 for antimycobacterial activity against Mycobacterium kansasii CNCTC My 235/80 after 21 days
- Assay type: toxicity
- conditionParameters: read-out: Selectivity Index
metricName: selectivity ratio at 504 h

{"smilesInput": "O=[N+]([O-])c1cc(-c2nnc(SCc3ccccc3)n2Cc2ccccc2)cc(C(F)(F)F)c1", "testResult": "> 100"}

###

- procedureSummary: Cytotoxicity against human HepG2 cells assessed as cell viability at 30 uM after 48 hrs by CellTiter 96 aqueous one solution assay relative to control
- Type: cell-based
- conditionParameters: read-out: Activity

{"smilesInput": "O=[N+]([O-])c1cc(CSc2nnc(C3CCCCC3)n2Cc2ccccc2)cc(C(F)(F)F)c1", "viability at 48 h, 30 µM [%]": 79}
{"smilesInput": "O=[N+]([O-])c1cc(-c2nnc(SCc3ccc(Cl)cc3)n2Cc2ccccc2)cc(C(F)(F)F)c1", "viability at 48 h, 30 µM [%]": 68}
{"smilesInput": "O=[N+]([O-])c1cc(-c2nnc(SCc3ccc(Cl)cc3)n2Cc2ccccc2)cc([N+](=O)[O-])c1", "viability at 48 h, 30 µM [%]": 105}
{"smilesInput": "O=[N+]([O-])c1cc(-c2nnc(SCc3ccc(Br)cc3)n2Cc2ccccc2)cc([N+](=O)[O-])c1", "viability at 48 h, 30 µM [%]": 104}
{"smilesInput": "O=[N+]([O-])c1cc(CSc2nnc(-c3ccccc3)n2Cc2ccccc2)cc([N+](=O)[O-])c1", "viability at 48 h, 30 µM [%]": 107}
{"smilesInput": "O=[N+]([O-])c1cc(-c2nnc(SCc3ccccc3)n2Cc2ccccc2)cc(C(F)(F)F)c1", "viability at 48 h, 30 µM [%]": 18}
{"smilesInput": "CCCSc1nnc(-c2cc([N+](=O)[O-])cc([N+](=O)[O-])c2)n1Cc1ccccc1", "viability at 48 h, 30 µM [%]": 90}
{"smilesInput": "Cn1c(SCc2ccccc2)nnc1-c1cc([N+](=O)[O-])cc([N+](=O)[O-])c1", "viability at 48 h, 30 µM [%]": 161}
{"smilesInput": "O=[N+]([O-])c1cc(CSc2nnc(-c3ccc(Cl)cc3)n2Cc2ccccc2)cc([N+](=O)[O-])c1", "viability at 48 h, 30 µM [%]": 104}
{"smilesInput": "COc1ccc(Cn2c(SCc3cc([N+](=O)[O-])cc([N+](=O)[O-])c3)nnc2-c2ccccc2)cc1", "viability at 48 h, 30 µM [%]": 133}
